system-under-test: T1, human G-protein-coupled receptor family C group 5 member D (GPRC5D) (human, UniProt Q9NZD1 1-345)
T1 construct: whole, on cells; also called human GPRC5D protein
T1 sequence (Q9NZD1 whole entry): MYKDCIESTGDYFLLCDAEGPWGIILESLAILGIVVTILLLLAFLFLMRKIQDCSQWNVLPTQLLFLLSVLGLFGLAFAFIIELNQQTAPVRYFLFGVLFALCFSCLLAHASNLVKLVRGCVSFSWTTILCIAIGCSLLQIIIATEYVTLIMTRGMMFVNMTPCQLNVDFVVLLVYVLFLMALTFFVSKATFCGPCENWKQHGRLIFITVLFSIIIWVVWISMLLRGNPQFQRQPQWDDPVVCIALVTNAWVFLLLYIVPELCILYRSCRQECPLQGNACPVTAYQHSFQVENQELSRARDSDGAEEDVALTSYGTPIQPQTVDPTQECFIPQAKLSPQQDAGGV
test-details: FACS, CHO-K1/GPRC5D
reported-endpoint: LogEC50

# binder, reported-endpoint, numeric-result
measured = [
    ("58-H4L3 (antibody, V domains shown, humanized 58F9G10, VH v4 x VL v3) VH: QVQLVQSGAEVKKPGASVKISCKASGYSFTGYYIHWVKQAPGQGLEWIGYISSYNAATSFNQKFKGRATFTVDTSTSTAYMEFSSLRSEDSAVYYCARTELRGPWFAYWGQGTLVTVSS VL: DTQLTQSPSSLSASVGDRVTMTCSASSSVSYMNWYQQKPGKAPKRLIYDTSKLASGVPSRFSGSGSGTDYTLTISSMQPEDFATYYCQQWSNNPLTFGQGTKLEIK", "LogEC50", 0.287),
    ("58-H2L2 (antibody, V domains shown, humanized 58F9G10, VH v2 x VL v2) VH: QVQLVQSGAEVKKPGASVKVSCKASGYSFTGYYIHWVRQAPGQGLEWIGYISSYNAATSFNQKFKGRVTFTVDTSTSTVYMELSSLRSEDTAVYYCARTELRGPWFAYWGQGTLVTVSS VL: DTQMTQSPSSLSASVGDRVTITCSASSSVSYMNWYQQKPGKAPKRLIYDTSKLASGVPSRFSGSGSGTDYTLTISSLQPEDFATYYCQQWSNNPLTFGQGTKLEIK", "LogEC50", 0.345),
    ("58-H1L3 (antibody, V domains shown, humanized 58F9G10, VH v1 x VL v3) VH: QVQLVQSGAEVKKPGASVKVSCKASGYSFTGYYIHWVRQAPGQGLEWMGYISSYNAATSFNQKFKGRVTMTRDTSTSTVYMELSSLRSEDTAVYYCARTELRGPWFAYWGQGTLVTVSS VL: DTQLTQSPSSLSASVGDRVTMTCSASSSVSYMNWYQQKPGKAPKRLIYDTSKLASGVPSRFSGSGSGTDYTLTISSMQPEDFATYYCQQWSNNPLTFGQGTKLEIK", "LogEC50", 0.231),
    ("58-H3L3 (antibody, V domains shown, humanized 58F9G10, VH v3 x VL v3) VH: QVQLVQSGAEVKKPGASVKVSCKASGYSFTGYYIHWVKQAPGQGLEWIGYISSYNAATSFNQKFKGRVTFTVDTSTSTVYMEFSSLRSEDTAVYYCARTELRGPWFAYWGQGTLVTVSS VL: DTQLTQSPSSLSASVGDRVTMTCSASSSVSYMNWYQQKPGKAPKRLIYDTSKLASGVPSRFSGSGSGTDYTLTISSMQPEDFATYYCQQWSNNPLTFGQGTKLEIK", "LogEC50", 0.318),
    ("58-H3L2 (antibody, V domains shown, humanized 58F9G10, VH v3 x VL v2) VH: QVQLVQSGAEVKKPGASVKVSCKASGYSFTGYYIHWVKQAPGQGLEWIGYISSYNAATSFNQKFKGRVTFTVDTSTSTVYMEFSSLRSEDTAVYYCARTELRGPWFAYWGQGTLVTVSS VL: DTQMTQSPSSLSASVGDRVTITCSASSSVSYMNWYQQKPGKAPKRLIYDTSKLASGVPSRFSGSGSGTDYTLTISSLQPEDFATYYCQQWSNNPLTFGQGTKLEIK", "LogEC50", 0.374),
    ("58-H2L3 (antibody, V domains shown, humanized 58F9G10, VH v2 x VL v3) VH: QVQLVQSGAEVKKPGASVKVSCKASGYSFTGYYIHWVRQAPGQGLEWIGYISSYNAATSFNQKFKGRVTFTVDTSTSTVYMELSSLRSEDTAVYYCARTELRGPWFAYWGQGTLVTVSS VL: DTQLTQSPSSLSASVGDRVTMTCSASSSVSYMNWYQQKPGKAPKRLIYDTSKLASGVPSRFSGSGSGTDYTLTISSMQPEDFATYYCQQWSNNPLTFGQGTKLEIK", "LogEC50", 0.27),
    ("58-H4L2 (antibody, V domains shown, humanized 58F9G10, VH v4 x VL v2) VH: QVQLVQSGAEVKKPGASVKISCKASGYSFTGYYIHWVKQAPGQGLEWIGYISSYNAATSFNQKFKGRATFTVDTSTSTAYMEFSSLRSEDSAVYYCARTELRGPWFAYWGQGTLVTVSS VL: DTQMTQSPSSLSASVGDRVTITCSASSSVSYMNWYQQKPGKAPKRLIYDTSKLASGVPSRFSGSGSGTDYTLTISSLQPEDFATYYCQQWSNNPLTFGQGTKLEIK", "LogEC50", 0.341),
    ("58-H2L1 (antibody, V domains shown, humanized 58F9G10, VH v2 x VL v1) VH: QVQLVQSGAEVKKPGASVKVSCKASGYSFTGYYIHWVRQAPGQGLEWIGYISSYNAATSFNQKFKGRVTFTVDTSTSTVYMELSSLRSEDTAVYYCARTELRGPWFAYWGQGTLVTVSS VL: DIQMTQSPSSLSASVGDRVTITCSASSSVSYMNWYQQKPGKAPKLLIYDTSKLASGVPSRFSGSGSGTDFTLTISSLQPEDFATYYCQQWSNNPLTFGQGTKLEIK", "LogEC50", 0.378),
]

The reported measurements were obtained from patent US12281162.
